# Tested on: acetylcholine muscarinic M1 receptor (Homo sapiens, UniProt P11229)
# Construct: expressed in transfected cells; host or cells: CHOnfat cells (CHO cells with an NFAT reporter) expressing hM1, kept under Geneticin selection
# Sequence (P11229 1-460): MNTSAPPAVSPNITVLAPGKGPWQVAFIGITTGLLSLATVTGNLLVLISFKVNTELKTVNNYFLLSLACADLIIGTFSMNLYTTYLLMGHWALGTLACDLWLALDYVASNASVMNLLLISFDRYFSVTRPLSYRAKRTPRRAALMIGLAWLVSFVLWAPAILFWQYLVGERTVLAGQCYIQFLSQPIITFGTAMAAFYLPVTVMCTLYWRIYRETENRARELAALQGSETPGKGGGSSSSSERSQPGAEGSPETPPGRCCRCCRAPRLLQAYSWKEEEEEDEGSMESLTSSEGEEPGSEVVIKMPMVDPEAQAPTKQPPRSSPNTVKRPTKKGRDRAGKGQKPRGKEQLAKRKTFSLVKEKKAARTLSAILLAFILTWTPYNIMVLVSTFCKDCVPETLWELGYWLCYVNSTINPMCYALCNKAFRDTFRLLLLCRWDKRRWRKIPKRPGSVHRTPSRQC
# Protocol notes: muscarinic FLIPR assay: intracellular calcium in CHOnfat/hM1 cells, potentiation of EC20 acetylcholine
# Assay type: cell-based
# Condition summary: Table 1; CHOnfat/hM1 cells, FLIPR, EC20 acetylcholine (3 nM final); read-out: M1 Pot.
Entries and their log10 EC50
Readout: log10 EC50 (log10 of the value in nM)

1. N#CC1(c2ccccn2)CCN(Cc2cc3c(c4ccccc24)CN(C2CCOCC2)C3=O)CC1 [Example 54]: 2.45
2. O=C1c2cc(CN3CCN(c4ccc5ncsc5c4)CC3)c3ccccc3c2CN1c1ccccc1F [Example 85]: 3.06
3. O=C1c2cc(CN3CCN(c4ccncc4)CC3)c3ccccc3c2CN1[C@H]1CCCC[C@@H]1O [Example 77]: 2.33
4. O=C1c2cc(CN3CCCCC3)c3ccccc3c2CN1[C@H]1CCCC[C@@H]1O [Example 11]: 3.69
5. O=C1c2cc(CN3CCCC3C(F)(F)F)c3ccccc3c2CN1C1CCCCC1O (centres unmarked) [Example 30]: 3.43
6. N#CC1(F)CCN(Cc2cc3c(c4ccccc24)CN([C@H]2CCCC[C@@H]2O)C3=O)CC1 [Example 19]: 1.57
7. Cn1cc(N2CCN(Cc3cc4c(c5ccccc35)CN([C@@H]3CCCC[C@H]3O)C4=O)CC2)cn1 [Example 81]: 2.70
8. O=C1c2cc(CN3CCN(c4cc5ccccc5cn4)CC3)c3ccccc3c2CN1c1ccccc1F [Example 84]: 3.51

These data points were gathered from patent US9206200B2.
